B1: ZNF449 (parent)
chain: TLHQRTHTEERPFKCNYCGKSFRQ

Variants of: B1
assay: protein stability index of a GFP-peptide fusion (GPS, HEK-293T) (PSI 1-6); higher = more stable;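 also: lentivirally expressed fusions sorted by FACS into six bins by GFP to DsRed ratio, PSI derived from sequencing read proportions per bin multiplied by bin number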
recorded-conditions: c terminus: a fixed tail appended
Below, each entry is listed alongside its reported protein stability index.
outcome-measure: protein stability index

>>> test_result("G19V")
2.09
>>> test_result("F22I")
2.02
>>> test_result("R5L")
2.24
>>> test_result("E9F")
1.25
>>> test_result("T1L")
2.04
